Some variants, each annotated with its measured self-cleavage.
B1: HDV Ribozyme (parent)
chain: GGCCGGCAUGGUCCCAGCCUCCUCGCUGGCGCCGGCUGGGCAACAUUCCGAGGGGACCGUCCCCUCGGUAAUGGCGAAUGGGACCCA

- Variants of: B1
- Method Summary: self-cleavage, relative activity (ratio to wild type); higher = more cleavage; co-transcriptional
Metric Name: self-cleavage

>>> print(df.to_string())
      variant    metric_name  reported_measurement
 0  G31A U46A  self-cleavage                 0.108
 1  U60A U65A  self-cleavage                 0.831
 2  C36G G73C  self-cleavage                 0.185
 3  U79C C85G  self-cleavage                 0.287
 4   G2U A16U  self-cleavage                0.0237
 5    G1U C7A  self-cleavage                 0.169
 6  G39U C49U  self-cleavage                 0.649
 7  G29C U60A  self-cleavage                0.0426
 8    G1C C3U  self-cleavage                  0.34
 9  C15U C84U  self-cleavage                 0.962
10  C22G C63A  self-cleavage                 0.166
11  U23C C84U  self-cleavage                 0.831
12  G73A A83G  self-cleavage                 0.511
13  G39A G40C  self-cleavage                 0.459
14  G34U C66G  self-cleavage                 0.164
15  C33G C62A  self-cleavage                 0.225
16  G34C C48U  self-cleavage                  0.17
17  U12A C15A  self-cleavage                  0.19
18  C48U C61U  self-cleavage                 0.856
19  U37C G80U  self-cleavage                 0.224
20  C14G U20G  self-cleavage                 0.151
21   G5A A51C  self-cleavage                 0.312
22   C7U U12C  self-cleavage                 0.237
23  U12C C30G  self-cleavage                0.0573
24  A77U U79G  self-cleavage                 0.161
25  U72G G74U  self-cleavage                 0.264
26  C30G C75A  self-cleavage                0.0583
27  A16C A42U  self-cleavage                 0.208
28  C41U C66G  self-cleavage                 0.926
29  G10U A45C  self-cleavage                 0.175
30  C30G C84G  self-cleavage                0.0755
31  A16U U79A  self-cleavage                  1.09
32  C41U C58U  self-cleavage                  1.17
33  U27C U72A  self-cleavage                 0.396
34  G29C A78C  self-cleavage                0.0519
35  A42C G73A  self-cleavage                 0.245
36  U20G G53A  self-cleavage                 0.148
37  G40A G52C  self-cleavage                 0.986
38       C15G  self-cleavage                 0.663
39  C18A C41U  self-cleavage                0.0339
40  G10C G80U  self-cleavage                 0.219
41  G35U G52C  self-cleavage                 0.366
42  C24A A78C  self-cleavage                 0.133
43   C4U C14G  self-cleavage                 0.369
44  U20A U46A  self-cleavage                0.0594
